Data origin, for the record: ChEMBL document CHEMBL4308854

# Test system: Staphylococcus aureus
# assay_protocol: Potency index, ratio of ciprofloxacin MIC to compound MIC for Staphylococcus aureus RCMB 010028
# Type: functional
value_type: Ratio
The reply should be a number, written without any unit.

structure_string	value_type	value_measured
CC(=O)c1sc(/N=C2\NC(=O)/C(=C3/C(=O)N(Cc4ccccc4)c4ccc(Cl)cc43)S2)nc1C	Ratio	2
CC(=O)c1sc(/N=C2\NC(=O)/C(=C3/C(=O)N(C)c4ccccc43)S2)nc1C	Ratio	2
CC(=O)c1sc(/N=C2\NC(=O)/C(=C3/C(=O)N(C)c4ccc(Cl)cc43)S2)nc1C	Ratio	2

Input: Notebook: pull reported Ratio for Staphylococcus aureus, entry CCOC(=O)c1sc(/N=C2\NC(=O)/C(=C3/C(=O)Nc4ccc(OC)cc43)S2)nc1C
Output: 2

Input: Missing value: Ratio, Staphylococcus aureus, entry CC(=O)c1sc(/N=C2\NC(=O)/C(=C3/C(=O)Nc4ccc(Cl)cc43)S2)nc1C . Fill in?
Output: 2

Input: API: value(readout= Ratio, system= Staphylococcus aureus, query= CCOC(=O)c1sc(/N=C2\NC(=O)/C(=C3/C(=O)N(Cc4ccccc4)c4ccc(Cl)cc43)S2)nc1C )
Output: 2

Input: Notebook: pull reported Ratio for Staphylococcus aureus, entry CCOC(=O)c1sc(/N=C2\NC(=O)/C(=C3/C(=O)Nc4ccc(Cl)cc43)S2)nc1C
Output: 2
